Test: yeast NALP1 reporter signal suppression – S. cerevisiae, luminescence, single concentration, NALP1 inhibitor project, confirmation (AID 488841);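 further: plate controls were DMSO in galactose medium for no effect and cells in plain SD medium for full effect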
Details: S. cerevisiae NALP1/ASC/Caspase-1 reporter, beta-gal luminescence; at 10 µM; hits give high values
About 380 (27%) of roughly 1,400 compounds were called active. The list shows a part of the results.
molecules and their reported inhibition

Example entries begin here.
Record "CCOC(=O)C1(Cc2ccc(OC)cc2)CCN(C(=O)CCc2cnccn2)CC1" , field inhibition: 25.1% (inactive)

Record "CCc1ccc(CC(=S)N2CCOCC2)cc1" , field inhibition: 42.3% (inactive)

Record "CCOc1ccc(OCCSc2nc3ccccc3o2)cc1" , field inhibition: 42.4% (inactive)

Others:
Record CCCN(Cc1nc(-c2ccc(Cl)cc2)no1)CC1CCCO1 (configuration not stated) , field inhibition: 53.1% (active)

Record "COC1=C(Nc2ccccc2)C(=O)c2ccccc2C1=O" , field inhibition: 17.4% (inactive)

Record "CNc1nc(SCc2ccc(C)cc2)nc2c1CCCC2" , field inhibition: 98.8% (active)

Record CC(CC(=O)Nc1cccc(Cl)c1)c1ccccc1 (configuration not stated) , field inhibition: 42.7% (inactive)

Record CCOC(=O)c1ccc(N2C(=O)CC(N3CCCC(C)C3)C2=O)cc1 (configuration not stated) , field inhibition: 35.9% (inactive)

Record "COc1cc(S(=O)(=O)NCc2cccnc2)ccc1F" , field inhibition: 27.6% (inactive)

Record "CC(C)C(=O)Nc1ccc(Nc2ccccc2)cc1" , field inhibition: 58.4% (active)

Record "CNc1nc(SCc2ccccc2Cl)nc2c1CCCC2" , field inhibition: 99% (active)

Record "Cc1oc(-c2ccccc2Cl)nc1CSc1nc2c(c(=O)[nH]1)CCC2" , field inhibition: 31.5% (inactive)

---

Experiment: yeast NALP1 reporter signal suppression – S. cerevisiae, luminescence, single concentration, NALP1 inhibitor project, confirmation (AID 488841)
Conditions: S. cerevisiae NALP1/ASC/Caspase-1 reporter, beta-gal luminescence; at 10 µM
The whole screen tested about 1,400 compounds, of which about 380 (27%) were called active.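 How the source made its calls: active means mean inhibition above 50% across duplicate retests at 10 µM; inactive means the rest.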 The list shows a part of the results.
Respond using exactly one of the listed classes: true = active, false = inactive

These solved cases illustrate the format of a correct answer.
Problem: Please let me know the test result on file for "c1ccc(-c2ccc(-c3cn4c(n3)CCC4)cc2)cc1" .
Result: true

Problem: Please let me know the test result on file for "CC(C)c1nc(SCC(=O)Nc2ccc3c(c2)OCCO3)n[nH]1" .
Result: false

Problem: Please let me know the test result on file for "CCOc1ccc(CNC(=O)c2cc3oc4ccccc4c3n2C)cc1" .
Result: false

Problem: Please let me know the test result on file for "Nc1[nH]c(=O)ncc1F" .
Result: false

Problem: Please let me know the test result on file for "O=S(=O)(Nc1ccc(-n2cccc2)cc1)c1ccc(Cl)cc1Cl" .
Result: true

Continue with the next compound.
Problem: Please let me know the test result on file for "CN(C)CCN(C(=O)/C=C/c1cccs1)c1nc2ccc(F)cc2s1" .
Result: true

---

compounds and their reported inhibition
Experiment: yeast NALP1 reporter signal suppression – S. cerevisiae, luminescence, single concentration, NALP1 inhibitor project, confirmation (AID 488841)
Settings: S. cerevisiae NALP1/ASC/Caspase-1 reporter, beta-gal luminescence; at 10 µM; hits give high values
Among all 1,400 compounds or so, about 380 (27%) were called active. The list shows a part of the results.

Record "CC1=C(C)/C(=N\OS(=O)(=O)c2ccc(C)cc2)C=CC1=O" , field inhibition: 79.5% (active)

Others:
Record CCOCC(O)CNC(=O)c1ccc(OC2CCN(C(=O)c3cccnc3)CC2)cc1 (stereo unspecified) , field inhibition: 29.6% (inactive)

Record "O=C(COC(=O)C1(c2ccccc2F)CCCC1)N1CCOCC1" , field inhibition: 17.6% (inactive)

Record "O=C(Nc1cccc(F)c1)c1ccc(CSc2ccccc2)o1" , field inhibition: 37.8% (inactive)

Record "O=c1c2c(C(F)(F)F)cc(C(F)(F)F)nc2[nH]n1-c1ccccc1" , field inhibition: 37.9% (inactive)

Record "CCCC(CCC)c1nc2ccncc2[nH]1" , field inhibition: 27.4% (inactive)

Record "Cc1cc2ncn(/N=C/c3ccc([N+](=O)[O-])s3)c2cc1C" , field inhibition: 65.3% (active)

Record "Cc1ccccc1-c1ccc(C(=O)Nc2cccc(F)c2)o1" , field inhibition: 52.9% (active)

Record "Cc1ccc(CC(=O)Nc2ccccc2-c2ccccc2)cc1C" , field inhibition: 35.9% (inactive)

Record "CN(C)/C=N/n1cnc2ccccc2c1=O" , field inhibition: 23.6% (inactive)

Record "CCOC(=O)c1c(C)[nH]c(C(=O)COC(=O)c2oc3ccccc3c2C)c1C" , field inhibition: 23.3% (inactive)

---

Assay: yeast NALP1 reporter signal suppression – S. cerevisiae, luminescence, single concentration, NALP1 inhibitor project, confirmation (AID 488841);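 further: plate controls were DMSO in galactose medium for no effect and cells in plain SD medium for full effect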
Conditions: S. cerevisiae NALP1/ASC/Caspase-1 reporter, beta-gal luminescence; at 10 µM
Out of some 1,400 compounds screened, about 380 (27%) were called active.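 Rule for the calls: active = mean inhibition above 50% across duplicate retests at 10 µM; inactive = the rest.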 The list shows a part of the results.
Respond using exactly one of the listed classes: True = active, False = inactive

These solved cases illustrate the format of a correct answer.
Problem: Please let me know the test result on file for "CCc1ccc(NCc2nc(-c3ccccc3)no2)cc1" .
Result: False

Problem: Please let me know the test result on file for CC(CCc1ccccc1)NC(=O)c1cc2sccc2n1C (stereo unspecified) .
Result: False

Problem: Please let me know the test result on file for "CCCCOC(=O)Oc1ccc2c(=O)c(Oc3cc(C)cc(C)c3)coc2c1" .
Result: False

Problem: Please let me know the test result on file for COc1ccc2c(c1)C1=NN(/C(C)=C/C(C)=O)C(c3cccc(F)c3)C1CC2 (stereo unspecified) .
Result: False

Problem: Please let me know the test result on file for "CC(C)Oc1ccc2c(=O)c(-c3ccccc3)coc2c1" .
Result: True

Continue with the next molecule.
Problem: Please let me know the test result on file for "O=C(Nc1cccc(O)c1)c1cc(-c2ccco2)on1" .
Result: True

---

Experiment: yeast NALP1 reporter signal suppression – S. cerevisiae, luminescence, single concentration, NALP1 inhibitor project, confirmation (AID 488841);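 further: plate controls were DMSO in galactose medium for no effect and cells in plain SD medium for full effect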
Details: S. cerevisiae NALP1/ASC/Caspase-1 reporter, beta-gal luminescence; at 10 µM
About 380 (27%) of roughly 1,400 compounds were called active.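 Rule for the calls: active = mean inhibition above 50% across duplicate retests at 10 µM; inactive = the rest.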 This is one part of the list.
Respond using exactly one of the listed classes: active, inactive

Problem: Please let me know the test result on file for "O=C(c1cccc([N+](=O)[O-])c1)n1nc(-c2ccccc2)nc1NCc1ccccc1" .
Result: inactive

Problem: Please let me know the test result on file for "O=c1ncn(-c2cccc(F)c2)c2ncccc12" .
Result: inactive

Problem: Please let me know the test result on file for "Cc1cc(Nc2ccccc2)nn1C(=O)c1ccccc1" .
Result: inactive

Problem: Please let me know the test result on file for "CCOC(=O)c1nn(-c2ccc(C)cc2)cc1C(=O)c1ccccc1" .
Result: inactive

Problem: Please let me know the test result on file for "O=C(Nc1nc2ccccc2s1)C1c2ccccc2Oc2ccccc21" .
Result: inactive

Problem: Please let me know the test result on file for "COC(=O)c1sccc1N/N=C(\C)c1ccc(F)c(Cl)c1" .
Result: inactive

Others:
Problem: Please let me know the test result on file for "CCOC(=O)c1[nH]c2ccc(Br)cc2c1NC(=O)CCN1CCC(C)CC1" .
Result: inactive

Problem: Please let me know the test result on file for "N=c1n(CC(=O)c2ccc([N+](=O)[O-])cc2)c2ccccc2n1Cc1ccccc1Cl" .
Result: inactive

Problem: Please let me know the test result on file for "COc1ccc(Nc2cc(C)c3ccc(O)cc3n2)cc1" .
Result: active

Problem: Please let me know the test result on file for "CCn1nc(C)cc1Nc1ccccc1" .
Result: inactive

Problem: Please let me know the test result on file for "Cc1ccc2nc(NC(=O)c3ccc4ncsc4c3)sc2c1" .
Result: inactive

Problem: Please let me know the test result on file for "CCOC(=O)C(=CNNc1ccsc1C(=O)OC)C(=O)OCC" .
Result: inactive

Problem: Please let me know the test result on file for "COC(=O)c1sccc1NC(=O)c1csc(C)c1" .
Result: active

---

compounds and their reported inhibition
Assay: yeast NALP1 reporter signal suppression – S. cerevisiae, luminescence, single concentration, NALP1 inhibitor project, confirmation (AID 488841);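 further: plate controls were DMSO in galactose medium for no effect and cells in plain SD medium for full effect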
Settings: S. cerevisiae NALP1/ASC/Caspase-1 reporter, beta-gal luminescence; at 10 µM; hits give high values
The whole screen tested about 1,400 compounds, of which about 380 (27%) were called active. This is one part of the list.

Example entries begin here.
Record COC(=O)c1ccccc1SC1CC(=O)N(c2cccc(C)c2)C1=O (configuration not stated) , field inhibition: 34% (inactive)

Record "Cc1onc(-c2ccccc2Cl)c1C(=O)N1C=CC(C(F)(F)F)=NCC1" , field inhibition: 65.7% (active)

Record "O=C(NCCN1C(=O)S/C(=C\c2cccnc2)C1=O)c1cccc(OC(F)F)c1" , field inhibition: 39.6% (inactive)

Others:
Record "COc1ccc(OC)c(N/C(=N/C(=S)Nc2ccccc2)Nc2nc(C)cc(C)n2)c1" , field inhibition: 30.3% (inactive)

Record "Cc1cccc(NCc2nc3ccccc3n2C)c1" , field inhibition: 66% (active)

Record "COc1cccc(CN(C)CC(=O)Nc2cccc(S(N)(=O)=O)c2)c1OC" , field inhibition: 33.9% (inactive)

Record CCCc1[nH]nc2c1C(c1ccoc1)C(C#N)=C(N)O2 (configuration not stated) , field inhibition: 37.9% (inactive)

Record "Clc1ccc(Nc2ccc(NCc3ccccc3)nn2)cc1" , field inhibition: 75.7% (active)

Record "Cc1[nH][nH]c(=O)c1C(c1ccc(-c2ccc(Cl)c(Cl)c2)o1)c1c(C)[nH][nH]c1=O" , field inhibition: 24.6% (inactive)

Record "CS(=O)(=O)N(CC(=O)Nc1ccccc1Sc1ccccc1)C1CCCCC1" , field inhibition: -0.35% (inactive)
